experimentalProtocol: Clearance in rat at 5 mg/kg, iv
Type: ADME, organism-based
Set-up: dose 5 mg/kg, route intravenous
details: in vivo
assayEndpoint: clearance (mL/min/kg)
Output spec: scalar in mL/min/kg, unitless text.

*Q* Requested field: clearance. Item: "CCOc1cc([C@@H](CS(C)(=O)=O)N2C(=O)c3cccc(NC(C)=O)c3C2=O)ccc1OC"
*A* 8.33

====

experimentalProtocol: Half life in rat at 5 mg/kg, iv
Format: ADME, organism-based
Set-up: dose 5 mg/kg, route intravenous
details: in vivo
assayEndpoint: half-life (h)
Output spec: scalar in h, unitless text.

*Q* Requested field: half-life. Item: "CCOc1cc([C@@H](CS(C)(=O)=O)N2C(=O)c3cccc(NC(C)=O)c3C2=O)ccc1OC"
*A* 3

The reported measurements were obtained from ChEMBL document CHEMBL1152807.
